- target or test system: Glutamate receptor ionotropic, NMDA 1 (Rattus norvegicus, UniProt P35439); note: assay procedure not described here
readout kind: AC50

CCC1(c2ccccc2)CCC(=O)NC1=O (centres undefined) [GLUTETHIMIDE]; > 10 µM
C#C[C@]1(O)CC[C@H]2[C@@H]3CCC4=CC(=O)CC[C@@H]4[C@H]3C(=C)C[C@@]21CC; > 30 µM
CCOC(=O)C1=C[C@]2(CC)CCCN3CCc4c(n1c1ccccc41)[C@@H]32; > 30 µM
Cc1cnc(C(=O)NCCc2ccc(S(=O)(=O)NC(=O)NC3CCCCC3)cc2)cn1 [GLIPIZIDE]; > 10 µM

---

- target or test system: Adenosine receptor A3 (Homo sapiens); note: assay procedure not described here
- Sequence (P0DMS8 whole entry): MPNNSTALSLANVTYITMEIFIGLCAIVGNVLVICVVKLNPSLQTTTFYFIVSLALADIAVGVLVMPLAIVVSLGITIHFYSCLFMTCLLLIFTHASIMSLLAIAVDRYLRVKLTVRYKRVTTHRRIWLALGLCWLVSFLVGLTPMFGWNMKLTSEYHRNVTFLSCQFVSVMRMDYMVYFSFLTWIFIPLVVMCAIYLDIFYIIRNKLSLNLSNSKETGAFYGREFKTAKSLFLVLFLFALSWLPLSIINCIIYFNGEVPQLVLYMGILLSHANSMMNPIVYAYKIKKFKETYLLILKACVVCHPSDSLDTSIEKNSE
readout kind: AC50

CC(C)N(CCNC(=O)CN1CCCC1=O)C(C)C; > 30 µM
Cc1onc(-c2ccccc2)c1-c1ccc(S(N)(=O)=O)cc1; 23.8 µM
[H]/N=C(\N/C(=N/[H])Nc1ccc(Cl)cc1)NC(C)C; > 30 µM
COc1cc(N2CCC(N3CCN(C)CC3)CC2)ccc1Nc1ncc(Cl)c(Nc2ccccc2P(C)(C)=O)n1; > 30 µM
COc1c2ccoc2cc2oc(=O)ccc12; 23.8 µM
COc1cc2nccc(Oc3ccc(NC(=O)C4(C(=O)Nc5ccc(F)cc5)CC4)cc3)c2cc1OC [CABOZANTINIB]; 0.379 µM
C[C@H](Cc1cc2c(c(C(N)=O)c1)N(CCCO)CC2)NCCOc1ccccc1OCC(F)(F)F; > 30 µM
OC[C@H]1O[C@@H](c2ccc(F)c(Cc3cc4ccccc4s3)c2)[C@H](O)[C@@H](O)[C@@H]1O; > 30 µM
CC(C)C[C@H](NC(=O)CNC(=O)c1cc(Cl)ccc1Cl)B(O)O; > 30 µM
CC(CCc1ccccc1)NCC(O)c1ccc(O)c(C(N)=O)c1 (stereo unspecified); > 30 µM
FC(F)(F)c1ccc(CNc2ccc(Cc3c[nH]c4ncc(Cl)cc34)cn2)cn1; 3.69 µM
c1ccc2c(c1)CCc1ccccc1N2C1CN2CCC1CC2 (stereo unspecified); > 30 µM
C[C@H]1O[C@@H](n2cc(F)c(=O)[nH]c2=O)[C@H](O)[C@@H]1O; > 30 µM
CN1CCN(C2=Nc3ccccc3Oc3ccc(Cl)cc32)CC1; 27.4 µM
C/C=C/C/C=C/CCC(=O)[C@H]1O[C@H]1C(N)=O; > 30 µM
Cc1onc(-c2ccccc2)c1C(=O)N[C@@H]1C(=O)N2[C@@H]1SC(C)(C)[C@@H]2C(=O)O; > 30 µM
CN1CCC(=C2c3ccccc3Sc3ccccc32)CC1; 25.9 µM
CC(C)(O)CNc1nc(Nc2ccnc(C(F)(F)F)c2)nc(-c2cccc(C(F)(F)F)n2)n1; 0.003 µM
O=C(O)c1cc(/N=N/c2ccc(O)c(C(=O)O)c2)ccc1O; > 30 µM
Cc1cc(N)c2ccccc2[n+]1CCCCCCCCCC[n+]1c(C)cc(N)c2ccccc21; 8.73 µM
Cc1ccccc1C(=O)Nc1ccc(C(=O)N2CCCC(N(C)C)c3ccccc32)cc1 (stereo unspecified); > 30 µM
CC(C)Cc1ccc(C(C)C(=O)O)cc1 (stereo unspecified); > 30 µM
CCC(=O)O[C@]1(C(=O)SCF)[C@H](C)C[C@H]2[C@@H]3C[C@H](F)C4=CC(=O)C=C[C@]4(C)[C@@]3(F)[C@@H](O)C[C@@]21C [FLUTICASONE PROPIONATE]; 23.2 µM
CC(N)Cc1ccc(O)cc1 (stereo unspecified) [HYDROXYAMPHETAMINE]; > 30 µM
COC(=O)c1ccc(O)cc1; > 30 µM
CC(C)OC(=O)CCC/C=C\C[C@@H]1[C@@H](/C=C/C(F)(F)COc2ccccc2)[C@H](O)C[C@@H]1O; > 30 µM
CCN(CCCc1ccccc1)CCCc1ccccc1; > 30 µM
C[C@]1(Cn2ccnn2)[C@H](C(=O)O)N2C(=O)C[C@H]2S1(=O)=O; > 30 µM
CC1=CCC(C(C)(C)O)CC1O (stereo unspecified); > 30 µM
C[C@@H]1C[C@H]2[C@@H]3CCC4=CC(=O)C=C[C@]4(C)[C@@]3(Cl)[C@@H](O)C[C@]2(C)[C@@]1(OC(=O)c1ccco1)C(=O)CCl [MOMETASONE FUROATE]; 1.64 µM
Nc1c2ccccc2nc2ccccc12; 9.62 µM
CCOC(=O)C1=C[C@@H](OC(CC)CC)[C@H](NC(C)=O)[C@@H](N)C1; > 30 µM
Cc1ncc(COP(=O)(O)O)c(C=O)c1O [PYRIDOXAL PHOSPHATE ANHYDROUS]; > 30 µM
O=C1/C(=C2\Nc3ccc(S(=O)(=O)O)cc3C2=O)Nc2ccc(S(=O)(=O)O)cc21 [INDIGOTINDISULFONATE]; 0.995 µM
COc1cc2c(cc1OC)CC(=O)N(CCCN(C)C[C@H]1Cc3cc(OC)c(OC)cc31)CC2; > 30 µM
NCC(CC(=O)O)c1ccccc1 (stereo unspecified); > 30 µM

---

AC50 reference
- target or test system: 5-hydroxytryptamine receptor 2A (Homo sapiens); note: assay procedure not described here
- Sequence (P28223 whole entry): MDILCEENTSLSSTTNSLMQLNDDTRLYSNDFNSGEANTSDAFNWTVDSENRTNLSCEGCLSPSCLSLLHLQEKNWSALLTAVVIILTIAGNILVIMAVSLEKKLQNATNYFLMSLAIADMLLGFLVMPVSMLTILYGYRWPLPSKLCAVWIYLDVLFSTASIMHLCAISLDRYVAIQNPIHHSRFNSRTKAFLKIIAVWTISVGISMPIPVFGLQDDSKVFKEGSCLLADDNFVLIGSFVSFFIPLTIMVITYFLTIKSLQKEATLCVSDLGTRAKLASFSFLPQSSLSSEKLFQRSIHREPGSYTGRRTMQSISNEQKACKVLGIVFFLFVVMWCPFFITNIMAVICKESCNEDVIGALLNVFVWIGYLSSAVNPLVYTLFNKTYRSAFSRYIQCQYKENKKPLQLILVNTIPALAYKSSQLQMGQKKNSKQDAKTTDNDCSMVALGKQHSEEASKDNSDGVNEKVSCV
- Assay type: functional, cell-based
readout kind: AC50

CC1(C)S[C@@H]2[C@H](NC(=O)[C@H](N)c3ccccc3)C(=O)N2[C@H]1C(=O)OCOC(=O)[C@@H]1N2C(=O)C[C@H]2S(=O)(=O)C1(C)C [SULTAMICILLIN]; > 30 µM
Cc1cccc(N2CC(CO)OC2=O)c1 (stereo unspecified) [TOLOXATONE]; > 30 µM
CC(C)c1nc(N(C)S(C)(=O)=O)nc(-c2ccc(F)cc2)c1/C=C/[C@@H](O)C[C@@H](O)CC(=O)O [ROSUVASTATIN]; > 30 µM
CC1=C(C)C(=O)C(C(CCCCCC(=O)O)c2ccccc2)=C(C)C1=O (stereo unspecified) [SERATRODAST]; > 30 µM
CCC(C)C1(CC)C(=O)NC(=O)NC1=O (stereo unspecified) [BUTABARBITAL]; > 30 µM
Nc1ncn([C@H]2C[C@H](O)[C@@H](CO)O2)c(=O)n1 [DECITABINE]; > 30 µM
CCCCCC(=O)O[C@]1(C(C)=O)CC[C@H]2[C@@H]3CCC4=CC(=O)CC[C@]4(C)[C@H]3CC[C@@]21C [HYDROXYPROGESTERONE CAPROATE]; > 30 µM
COc1cc2c(cc1OC)C(CCc1ccc(Cl)cc1)N(C)CC2 (stereo unspecified) [METHOPHOLINE]; > 10 µM
CCCCCCCCCCCCCCCCCCCCCC(=O)Nc1ccn([C@@H]2O[C@H](CO)[C@@H](O)[C@@H]2O)c(=O)n1 [ENOCITABINE]; > 30 µM
CC1OC2(CS1)CN1CCC2CC1 (stereo unspecified) [CEVIMELINE]; > 10 µM
COc1cc2nccc(Oc3ccc(NC(=O)C4(C(=O)Nc5ccc(F)cc5)CC4)cc3)c2cc1OC [CABOZANTINIB]; > 30 µM
CC(=O)[C@@]1(O)CC[C@H]2[C@@H]3C=C(Cl)C4=CC(=O)[C@@H]5C[C@@H]5[C@]4(C)[C@H]3CC[C@@]21C [CYPROTERONE]; > 10 µM
CCC(=O)O[C@H]1CC[C@H]2[C@@H]3CCC4=CC(=O)CC[C@]4(C)[C@H]3CC[C@]12C [TESTOSTERONE PROPIONATE]; > 30 µM
COc1cc2ncnc(Nc3ccc(F)c(Cl)c3)c2cc1NC(=O)/C=C/CN1CCCCC1 [DACOMITINIB ANHYDROUS]; > 30 µM
C[C@@H](NCCCc1cccc(C(F)(F)F)c1)c1cccc2ccccc12; > 30 µM
C[N@+]1(CCF)[C@@H]2CC[C@H]1C[C@@H](OC(=O)C(O)(c1ccccc1)c1ccccc1)C2; > 30 µM

---

- target or test system: Alpha-1A adrenergic receptor (Homo sapiens, UniProt P35348); note: assay procedure not described here
- Sequence (P35348 whole entry): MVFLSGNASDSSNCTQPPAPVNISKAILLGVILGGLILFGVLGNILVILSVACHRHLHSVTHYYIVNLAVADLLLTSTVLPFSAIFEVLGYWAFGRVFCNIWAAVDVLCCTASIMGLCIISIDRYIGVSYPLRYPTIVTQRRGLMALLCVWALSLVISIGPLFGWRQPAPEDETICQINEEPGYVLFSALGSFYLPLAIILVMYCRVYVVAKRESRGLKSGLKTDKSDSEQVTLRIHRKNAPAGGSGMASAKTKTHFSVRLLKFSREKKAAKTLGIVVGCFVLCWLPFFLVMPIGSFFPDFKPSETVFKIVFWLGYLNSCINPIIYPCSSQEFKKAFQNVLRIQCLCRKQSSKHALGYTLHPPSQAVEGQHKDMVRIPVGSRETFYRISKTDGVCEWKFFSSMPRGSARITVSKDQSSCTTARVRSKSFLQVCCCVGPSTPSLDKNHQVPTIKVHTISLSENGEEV
- Format: functional, cell-based
readout kind: AC50

Clc1ccc2c(N3CCN(CCCN4CCN(c5ccnc6cc(Cl)ccc56)CC4)CC3)ccnc2c1; > 30 µM
N[C@@H](CC(=O)N1CCn2c(nnc2C(F)(F)F)C1)Cc1cc(F)c(F)cc1F; > 30 µM
CN1CCC(=C2c3ccccc3CCc3cccnc32)CC1; > 30 µM
COc1ccc2nc3cc(Cl)ccc3c(Nc3cc(CN4CCCC4)c(O)c(CN4CCCC4)c3)c2n1; > 30 µM
C[C@]12C=CC(=O)N[C@@H]1CC[C@@H]1[C@@H]2CC[C@]2(C)[C@@H](C(=O)Nc3cc(C(F)(F)F)ccc3C(F)(F)F)CC[C@@H]12 [DUTASTERIDE]; > 30 µM
OC1(c2ccc(Cl)cc2)c2ccccc2C2=NCCN21 (stereo not drawn); > 30 µM
C[C@]12CCC(=O)C(O)=C1CC[C@@H]1[C@@H]2CC[C@]2(C)C(=O)CC[C@@H]12; > 30 µM
COc1ccccc1OCCNCC(O)COc1cccc2[nH]c3ccccc3c12 (stereo not drawn); 0.3 µM
